# test_target: α3β4 (Homo sapiens, UniProt P30926+P32297)
# Construct: host or cells: HEK293 or CHO
# Sequence (P30926 22-498): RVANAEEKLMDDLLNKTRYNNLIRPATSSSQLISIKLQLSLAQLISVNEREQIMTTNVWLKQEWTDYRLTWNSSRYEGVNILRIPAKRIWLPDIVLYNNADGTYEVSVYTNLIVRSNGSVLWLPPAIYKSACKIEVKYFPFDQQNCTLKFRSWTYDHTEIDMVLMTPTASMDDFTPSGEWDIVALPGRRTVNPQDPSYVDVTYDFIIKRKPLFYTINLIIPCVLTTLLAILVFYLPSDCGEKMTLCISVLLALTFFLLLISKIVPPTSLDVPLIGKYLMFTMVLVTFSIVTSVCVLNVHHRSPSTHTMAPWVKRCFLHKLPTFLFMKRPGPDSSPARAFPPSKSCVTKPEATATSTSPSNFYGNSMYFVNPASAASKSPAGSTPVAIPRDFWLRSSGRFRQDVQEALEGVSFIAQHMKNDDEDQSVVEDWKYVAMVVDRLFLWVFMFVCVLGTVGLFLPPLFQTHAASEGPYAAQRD
# Sequence (P32297 32-505): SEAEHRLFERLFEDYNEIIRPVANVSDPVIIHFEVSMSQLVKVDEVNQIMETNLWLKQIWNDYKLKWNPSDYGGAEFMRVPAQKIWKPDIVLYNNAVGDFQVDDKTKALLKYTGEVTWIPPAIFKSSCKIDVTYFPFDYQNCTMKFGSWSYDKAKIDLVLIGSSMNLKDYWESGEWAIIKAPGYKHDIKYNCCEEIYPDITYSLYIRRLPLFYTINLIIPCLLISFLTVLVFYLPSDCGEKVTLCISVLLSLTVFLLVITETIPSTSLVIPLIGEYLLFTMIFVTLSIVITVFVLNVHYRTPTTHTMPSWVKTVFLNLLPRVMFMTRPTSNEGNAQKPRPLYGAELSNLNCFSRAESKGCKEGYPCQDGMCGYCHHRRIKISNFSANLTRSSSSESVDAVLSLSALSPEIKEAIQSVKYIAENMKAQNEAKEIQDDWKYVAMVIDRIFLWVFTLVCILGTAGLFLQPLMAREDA
# method_notes: Ion channel panel (IonWorks Barracuda): α3β4
# Type: cell-based
# conditions: peptide at 20 μM; 100% = no change, <100% = inhibition
metric: Activity of a3b4 with peptide (percentage of the reference compound) (%)
Give bare numbers, in %.

>>> observed_value("2 (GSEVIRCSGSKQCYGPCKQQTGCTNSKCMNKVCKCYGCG) [compound 2]")
88

List Activity of a3b4 with peptide (percentage of the reference compound) for every entry below, keeping the order given.
1. 24 (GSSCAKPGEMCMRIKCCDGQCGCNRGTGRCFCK) [compound 24]
2. 10 (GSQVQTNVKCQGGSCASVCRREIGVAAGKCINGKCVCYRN) [compound 10]
3. 27 (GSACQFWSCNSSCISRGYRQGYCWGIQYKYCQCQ) [compound 27]
4. 26 (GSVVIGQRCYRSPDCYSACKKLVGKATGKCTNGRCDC) [compound 26]

**Result**
[87, 104, 93, 91]

* * *

What Activity of Kv2.1 with peptide (percentage of the reference compound) was measured for each of the following?
# test_target: Kv2.1 (Homo sapiens)
# Construct: host or cells: HEK293 or CHO
# Sequence (Q14721 whole entry): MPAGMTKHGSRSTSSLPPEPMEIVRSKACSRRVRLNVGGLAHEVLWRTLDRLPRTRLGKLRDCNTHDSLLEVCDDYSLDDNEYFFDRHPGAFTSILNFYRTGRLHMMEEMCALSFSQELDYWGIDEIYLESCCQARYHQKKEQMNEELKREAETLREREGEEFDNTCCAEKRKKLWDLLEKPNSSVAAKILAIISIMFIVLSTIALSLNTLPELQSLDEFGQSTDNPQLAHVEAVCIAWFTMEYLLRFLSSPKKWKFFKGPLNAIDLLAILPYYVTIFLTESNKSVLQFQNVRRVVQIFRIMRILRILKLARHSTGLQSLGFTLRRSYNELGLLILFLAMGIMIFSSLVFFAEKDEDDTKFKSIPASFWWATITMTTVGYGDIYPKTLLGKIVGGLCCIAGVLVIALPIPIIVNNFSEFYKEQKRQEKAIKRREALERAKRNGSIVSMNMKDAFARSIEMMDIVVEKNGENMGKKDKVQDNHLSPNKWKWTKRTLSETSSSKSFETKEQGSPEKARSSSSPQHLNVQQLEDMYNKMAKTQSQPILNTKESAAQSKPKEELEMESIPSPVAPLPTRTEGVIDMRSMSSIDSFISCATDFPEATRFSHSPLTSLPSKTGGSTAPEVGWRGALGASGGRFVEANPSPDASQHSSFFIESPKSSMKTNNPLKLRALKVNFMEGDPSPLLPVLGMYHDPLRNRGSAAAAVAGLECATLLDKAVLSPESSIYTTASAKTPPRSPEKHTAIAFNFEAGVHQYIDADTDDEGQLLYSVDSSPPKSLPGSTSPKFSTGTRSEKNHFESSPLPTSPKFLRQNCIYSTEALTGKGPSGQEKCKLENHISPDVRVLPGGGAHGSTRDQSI
# method_notes: cell-based
# conditions: peptide at 20 μM; 100% = no change, <100% = inhibition
Numbers only, in %.

>>> observed_value("9 (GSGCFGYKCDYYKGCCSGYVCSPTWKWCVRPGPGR) [compound 9]")
99

List Activity of Kv2.1 with peptide (percentage of the reference compound) for every entry below, keeping the order given.
1. 38 (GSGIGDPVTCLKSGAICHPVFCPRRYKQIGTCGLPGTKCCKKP) [compound 38]
2. 17 (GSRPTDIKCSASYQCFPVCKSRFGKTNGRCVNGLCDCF) [compound 17]
3. 29 (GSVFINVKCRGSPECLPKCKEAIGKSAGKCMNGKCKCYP) [compound 29]
4. 36 (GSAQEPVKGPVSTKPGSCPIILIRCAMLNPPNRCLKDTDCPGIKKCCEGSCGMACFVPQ) [compound 36]
5. 4 (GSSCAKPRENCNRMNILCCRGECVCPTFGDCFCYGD) [compound 4]
6. 19 (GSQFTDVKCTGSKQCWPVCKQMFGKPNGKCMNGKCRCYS) [compound 19]

**Result**
1. 125
2. 93
3. 121
4. 92
5. 102
6. 108

* * *

# test_target: TRPV1 (Homo sapiens)
# Construct: host or cells: HEK293 or CHO
# Sequence (Q8NER1 whole entry): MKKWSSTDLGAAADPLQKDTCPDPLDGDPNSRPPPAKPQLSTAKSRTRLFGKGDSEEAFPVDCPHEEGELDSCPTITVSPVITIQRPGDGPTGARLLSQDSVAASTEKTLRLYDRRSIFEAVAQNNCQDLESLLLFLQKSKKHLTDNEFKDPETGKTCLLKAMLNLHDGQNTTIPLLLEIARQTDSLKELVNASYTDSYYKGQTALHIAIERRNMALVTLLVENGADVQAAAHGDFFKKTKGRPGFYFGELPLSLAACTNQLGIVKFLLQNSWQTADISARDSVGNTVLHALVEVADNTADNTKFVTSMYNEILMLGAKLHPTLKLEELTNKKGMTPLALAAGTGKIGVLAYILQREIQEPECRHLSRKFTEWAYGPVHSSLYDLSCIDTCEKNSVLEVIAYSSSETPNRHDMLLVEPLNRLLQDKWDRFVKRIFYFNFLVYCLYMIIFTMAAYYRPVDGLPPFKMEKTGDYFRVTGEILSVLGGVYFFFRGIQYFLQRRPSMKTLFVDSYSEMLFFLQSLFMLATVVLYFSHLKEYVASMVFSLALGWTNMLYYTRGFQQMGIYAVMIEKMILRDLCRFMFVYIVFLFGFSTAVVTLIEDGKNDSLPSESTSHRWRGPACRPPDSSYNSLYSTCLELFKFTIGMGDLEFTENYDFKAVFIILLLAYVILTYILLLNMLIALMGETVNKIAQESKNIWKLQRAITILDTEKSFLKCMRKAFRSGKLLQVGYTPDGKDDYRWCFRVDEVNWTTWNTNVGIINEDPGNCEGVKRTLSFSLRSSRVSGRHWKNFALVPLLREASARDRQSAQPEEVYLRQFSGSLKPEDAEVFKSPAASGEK
# method_notes: Ion channel panel (IonWorks Barracuda): TRPV1
# Assay type: cell-based
# conditions: peptide at 0.2 μM; 100% = no change, <100% = inhibition
# Description: This example describes a method for assaying ion channel activity in cells. Peptides were screened in duplicate at final concentrations of 20 μM and 200 nM, as determined by amino acid analysis, and diluted into HEPES buffered physiological saline (HBPS). HEK293 or CHO cells from the American Type Culture Collection (ATCC) were transfected with the appropriate ion channel before use. […]
metric: Activity of TRPV1 with peptide, expressed as a percentage of the reference compound (%)
Numbers only, in %.

List Activity of TRPV1 with peptide, expressed as a percentage of the reference compound for every entry below, keeping the order given.
1. 17 (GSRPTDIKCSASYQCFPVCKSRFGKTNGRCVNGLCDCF) [compound 17]
2. 11 (GSGDCLPHLKRCKENNDCCSKKCKRRGANPEKRCR) [compound 11]
3. 23 (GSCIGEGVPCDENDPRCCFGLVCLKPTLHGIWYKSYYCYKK) [compound 23]
4. 18 (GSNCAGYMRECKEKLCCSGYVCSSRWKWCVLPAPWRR) [compound 18]

**Result**
99
100
117
93

**Query** Give Activity of TRPV1 with peptide, expressed as a percentage of the reference compound for 22 (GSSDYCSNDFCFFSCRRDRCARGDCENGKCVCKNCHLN) [compound 22]
**Result** 102

* * *

# test_target: Kv1.1 (Homo sapiens)
# Construct: host or cells: HEK293 or CHO
# method_notes: cell-based
# Type: cell-based
# conditions: peptide at 20 μM; 100% = no change, <100% = inhibition
What Activity of Kv1.1 with peptide (percentage of the reference compound) was measured for each of the following?
Numbers only, in %.

>>> observed_value("13 (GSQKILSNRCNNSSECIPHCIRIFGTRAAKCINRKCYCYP) [compound 13]")
79

List Activity of Kv1.1 with peptide (percentage of the reference compound) for every entry below, keeping the order given.
1. 10 (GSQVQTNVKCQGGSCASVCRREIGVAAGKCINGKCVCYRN) [compound 10]
2. 24 (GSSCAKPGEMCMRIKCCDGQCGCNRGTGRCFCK) [compound 24]
3. 36 (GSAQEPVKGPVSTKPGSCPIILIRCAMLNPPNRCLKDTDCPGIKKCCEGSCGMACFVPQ) [compound 36]
4. 14 (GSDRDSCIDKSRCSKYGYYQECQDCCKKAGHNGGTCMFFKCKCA) [compound 14]
5. 26 (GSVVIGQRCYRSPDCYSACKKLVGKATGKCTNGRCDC) [compound 26]

**Result**
1: 84; 2: 69; 3: 101; 4: 99; 5: 85

List Activity of Kv1.1 with peptide (percentage of the reference compound) for every entry below, keeping the order given.
1. 21 (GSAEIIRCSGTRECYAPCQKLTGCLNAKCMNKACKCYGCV) [compound 21]
2. 11 (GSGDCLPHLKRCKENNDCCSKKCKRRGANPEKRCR) [compound 11]
3. 30 (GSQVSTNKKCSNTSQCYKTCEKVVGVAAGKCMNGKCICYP) [compound 30]

**Result**
[98, 55, 102]

* * *

# test_target: NR2B (Homo sapiens)
# Construct: host or cells: HEK293 or CHO
# method_notes: Ion channel panel (IonWorks Barracuda): NR2B
# Type: cell-based
# conditions: peptide at 0.2 μM; 100% = no change, <100% = inhibition
metric: Activity of NR2B with peptide, expressed as a percentage of the reference compound (%)
Give bare numbers, in %.

List Activity of NR2B with peptide, expressed as a percentage of the reference compound for every entry below, keeping the order given.
1. 26 (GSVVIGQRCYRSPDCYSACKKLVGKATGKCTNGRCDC) [compound 26]
2. 17 (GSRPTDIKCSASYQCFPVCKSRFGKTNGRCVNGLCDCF) [compound 17]
3. 34 (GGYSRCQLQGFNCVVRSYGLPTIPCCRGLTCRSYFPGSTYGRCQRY) [compound 34]

**Result**
[86, 90, 127]

List Activity of NR2B with peptide, expressed as a percentage of the reference compound for every entry below, keeping the order given.
1. 29 (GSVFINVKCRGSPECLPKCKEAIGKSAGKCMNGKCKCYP) [compound 29]
2. 2 (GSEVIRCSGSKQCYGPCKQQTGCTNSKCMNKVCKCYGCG) [compound 2]

**Result**
1: 101; 2: 118

* * *

# test_target: Kv1.1 (Homo sapiens, UniProt Q09470)
# Construct: host or cells: HEK293 or CHO
# Sequence (Q09470 whole entry): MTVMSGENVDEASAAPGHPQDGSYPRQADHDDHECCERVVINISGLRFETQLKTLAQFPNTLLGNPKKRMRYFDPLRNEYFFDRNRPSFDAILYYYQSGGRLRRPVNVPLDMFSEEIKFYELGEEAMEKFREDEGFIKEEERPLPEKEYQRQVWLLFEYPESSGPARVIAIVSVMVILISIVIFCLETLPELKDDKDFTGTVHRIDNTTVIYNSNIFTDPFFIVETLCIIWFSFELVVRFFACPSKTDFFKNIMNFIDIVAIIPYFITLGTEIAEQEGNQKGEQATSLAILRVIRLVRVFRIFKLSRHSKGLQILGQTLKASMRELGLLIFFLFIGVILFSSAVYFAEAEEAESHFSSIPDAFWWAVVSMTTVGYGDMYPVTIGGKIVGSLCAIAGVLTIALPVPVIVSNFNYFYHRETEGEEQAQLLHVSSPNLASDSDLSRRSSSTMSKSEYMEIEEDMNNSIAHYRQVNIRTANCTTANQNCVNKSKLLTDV
# method_notes: cell-based
# Format: cell-based
# conditions: peptide at 20 μM; 100% = no change, <100% = inhibition
metric: Activity of Kv1.1 with peptide (percentage of the reference compound) (%)
Give bare numbers, in %.

Worked cases, Activity of Kv1.1 with peptide (percentage of the reference compound) given:
>>> observed_value("18 (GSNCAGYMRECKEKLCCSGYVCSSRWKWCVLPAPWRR) [compound 18]")
78
>>> observed_value("5 (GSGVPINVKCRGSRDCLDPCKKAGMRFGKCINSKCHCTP) [compound 5]")
55
>>> observed_value("15 (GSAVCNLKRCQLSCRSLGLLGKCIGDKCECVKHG) [compound 15]")
72

Next up:
**Query** Recall the reported Activity of Kv1.1 with peptide (percentage of the reference compound) of 3 (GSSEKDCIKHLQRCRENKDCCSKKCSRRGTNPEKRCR) [compound 3] when tested on Kv1.1 (Homo sapiens, UniProt Q09470).
**Result** 73

* * *

# test_target: NR2B (Homo sapiens, UniProt Q13224)
# Construct: host or cells: HEK293 or CHO
# Sequence (Q13224 27-1484, other chains not shown): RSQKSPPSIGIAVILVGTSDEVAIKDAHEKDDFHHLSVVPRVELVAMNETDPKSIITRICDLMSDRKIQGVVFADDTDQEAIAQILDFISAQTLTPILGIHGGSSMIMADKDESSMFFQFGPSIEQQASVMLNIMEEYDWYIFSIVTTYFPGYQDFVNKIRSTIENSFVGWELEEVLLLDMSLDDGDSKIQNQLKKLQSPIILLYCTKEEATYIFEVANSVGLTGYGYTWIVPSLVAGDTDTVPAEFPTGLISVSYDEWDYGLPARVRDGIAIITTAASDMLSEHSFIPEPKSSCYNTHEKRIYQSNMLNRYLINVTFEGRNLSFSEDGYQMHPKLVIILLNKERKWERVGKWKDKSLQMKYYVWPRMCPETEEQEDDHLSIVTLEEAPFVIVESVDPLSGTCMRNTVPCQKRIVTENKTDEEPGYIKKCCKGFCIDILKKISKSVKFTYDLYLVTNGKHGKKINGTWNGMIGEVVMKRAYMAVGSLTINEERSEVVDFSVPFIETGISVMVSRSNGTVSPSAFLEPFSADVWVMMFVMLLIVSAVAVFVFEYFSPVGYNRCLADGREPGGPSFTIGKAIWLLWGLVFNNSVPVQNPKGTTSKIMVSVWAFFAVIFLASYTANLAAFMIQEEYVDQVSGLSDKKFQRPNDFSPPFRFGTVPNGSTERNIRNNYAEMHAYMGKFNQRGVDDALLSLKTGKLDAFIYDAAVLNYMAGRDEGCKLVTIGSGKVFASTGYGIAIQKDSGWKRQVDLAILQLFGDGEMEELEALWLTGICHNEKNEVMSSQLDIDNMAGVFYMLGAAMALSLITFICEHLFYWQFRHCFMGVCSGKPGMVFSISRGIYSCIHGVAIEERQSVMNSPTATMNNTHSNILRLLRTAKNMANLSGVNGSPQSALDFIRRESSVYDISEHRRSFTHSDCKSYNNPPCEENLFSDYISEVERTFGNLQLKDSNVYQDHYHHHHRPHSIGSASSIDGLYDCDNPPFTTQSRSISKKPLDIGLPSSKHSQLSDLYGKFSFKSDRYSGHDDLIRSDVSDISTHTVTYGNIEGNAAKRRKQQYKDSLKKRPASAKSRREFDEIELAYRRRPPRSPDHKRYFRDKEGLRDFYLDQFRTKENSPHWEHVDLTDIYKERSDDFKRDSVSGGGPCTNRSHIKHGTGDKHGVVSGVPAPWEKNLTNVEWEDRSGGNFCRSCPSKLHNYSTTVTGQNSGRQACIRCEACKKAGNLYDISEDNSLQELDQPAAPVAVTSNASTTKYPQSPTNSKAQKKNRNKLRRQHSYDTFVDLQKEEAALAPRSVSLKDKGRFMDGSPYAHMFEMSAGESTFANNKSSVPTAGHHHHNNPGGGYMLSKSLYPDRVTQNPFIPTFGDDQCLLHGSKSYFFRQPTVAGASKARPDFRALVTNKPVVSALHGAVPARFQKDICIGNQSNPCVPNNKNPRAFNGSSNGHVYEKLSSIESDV
# method_notes: Ion channel panel (IonWorks Barracuda): NR2B
# Format: cell-based
# conditions: peptide at 20 μM; 100% = no change, <100% = inhibition
metric: Activity of NR2B with peptide (percentage of the reference compound) (%)
One number for each entry, in %.

Worked cases, Activity of NR2B with peptide (percentage of the reference compound) given:
>>> observed_value("11 (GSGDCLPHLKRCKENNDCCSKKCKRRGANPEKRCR) [compound 11]")
78
>>> observed_value("12 (GSNFKVEGACSKPCRKYCIDKGARNGKCINGRCHCYY) [compound 12]")
83
>>> observed_value("38 (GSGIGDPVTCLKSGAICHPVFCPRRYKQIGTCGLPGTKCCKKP) [compound 38]")
88
>>> observed_value("39 (GSGVPTDVKCRGSPQCIQPCKDAGMRFGKCMNGKCHCTPK) [compound 39]")
85
>>> observed_value("16 (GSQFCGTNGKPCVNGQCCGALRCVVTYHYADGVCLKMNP) [compound 16]")
91

List Activity of NR2B with peptide (percentage of the reference compound) for every entry below, keeping the order given.
1. 32 (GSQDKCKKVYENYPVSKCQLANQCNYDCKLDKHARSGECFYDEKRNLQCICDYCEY) [compound 32]
2. 9 (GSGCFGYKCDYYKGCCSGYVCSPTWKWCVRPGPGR) [compound 9]
3. 26 (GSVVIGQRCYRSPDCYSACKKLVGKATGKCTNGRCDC) [compound 26]
4. 17 (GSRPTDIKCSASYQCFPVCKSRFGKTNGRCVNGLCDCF) [compound 17]

**Result**
1. 106
2. 85
3. 79
4. 77

Reference source: patent US20200262877A1
